Target: T1, OX40-his (Homo sapiens (Human), UniProt P43489 29-214, limits assumed)
T1 construct: Analyte of the Biacore 8K assay; also called Ag OX40-his; Antigen OX40-his; not shown: His tag
T1 sequence: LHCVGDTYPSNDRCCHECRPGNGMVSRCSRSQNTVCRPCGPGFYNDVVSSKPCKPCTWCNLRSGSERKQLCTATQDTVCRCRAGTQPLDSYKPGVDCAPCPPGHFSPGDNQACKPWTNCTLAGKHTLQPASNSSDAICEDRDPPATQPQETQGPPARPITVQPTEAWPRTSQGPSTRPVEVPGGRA
Assay: SPR Biacore 8K, antibody captured, OX40-his as analyte
Procedure: The affinities of purified antibody binding to OX40-his was determined using a Surface Plasmon Resonance (SPR) biosensor, Biacore 8k. Antibodies were immobilized on the sensor chip through capture method. Antigen OX40-his was used as the analyte. The data of dissociation (kd) and association (ka) rate constants were obtained using Biacore 8k evaluation software. The equilibrium dissociation constants (KD) were calculated from the ratio of kd over ka.
Reported koff values are given for each entry in this list.
# output: bare number, implied unit s⁻¹

Observe how each entry below is paired with its result.
1) humanized Ab REMD 277.1 (VH2-1/VL2-1) (antibody, human IgG1, kappa, V domains shown) VH: EVQLVQSGAEVKKPGESLKISCKGSGYTFTSYVMHWVRQMPGKGLEWMGYINPYNDGTKYNEKFKGQVTISADKSISTAYLQWSSLKASDTAMYYCARYYGSNYAMDYWGQGTMVTVSS VL: EIVLTQSPATLSLSPGERATLSCRASQDIRNYLNWYQQKPGQAPRLLIYYTSRLHSGIPARFSGSGSGTDFTLTISSLEPEDFAVYYCQQGNTLPWTFGQGTKVEIKR :: 0.000848
2) humanized Ab REMD 277.2 (VH2-1/VL5BM) (antibody, human IgG1, kappa, V domains shown) VH: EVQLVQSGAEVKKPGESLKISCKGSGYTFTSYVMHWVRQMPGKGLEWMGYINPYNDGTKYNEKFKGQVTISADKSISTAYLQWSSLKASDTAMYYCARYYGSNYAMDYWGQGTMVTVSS VL: DIQMTQSPSSLSASVGDRVTISCRASQDIRNYLNWYQQKPGKTVKLLIYYTSRLHSGVPSRFSGSGSGTDYTFTISSLQPEDIATYFCQQGNTLPWTFGGGTKLEIKR :: 0.000119
3) murine-human chimeric antibody derived from murine antibody A6 (chimeric IgG) (antibody, V domains shown, also called chimeric OX40 Ab) VH: EVQLQQSGPELVKPGASVKMSCKASGYTFTSYVMHWVKQKPGQGLEWIGYINPYNDGTKYNEKFKGKATLTSDKSSSTAYMELSSLTSEDSAVYYCANYYGSNYAMDYWGQGTSVTVSS VL: DIQMTQTTSSLSASLGDRVTISCRASQDIRNYLNWYQQKPDGTVKLLIYYTSRLHSGVPSRFSGSGSGTDYSLTISNLEQEDIATYFCQQGNTLPWTFGGGTKLEIKR :: 0.000865

Then there is this binder:
Query :: Give koff for humanized Ab REMD 277 (VH2-1/VL2-2) (antibody, human IgG1, kappa, V domains shown) VH: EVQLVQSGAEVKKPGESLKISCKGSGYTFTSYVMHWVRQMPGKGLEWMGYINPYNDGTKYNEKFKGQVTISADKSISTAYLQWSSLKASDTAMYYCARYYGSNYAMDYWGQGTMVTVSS VL: EIVMTQSPATLSASPGERVTLSCRASQDIRNYLNWYQQKPGGAVRLLIYYTSRLHSGVPARFSGSGSGTDYTLTISSLEPEDYAVYFCQQGNTLPWTFGQGTKVEIKR
Result :: 0.000178
